Hey, just so you know, these numbers are from PubChem BioAssay (Tox21).

# Target Desc: Cytochrome P450 2D6 (Homo sapiens)
# Procedure Details: Cytochrome P450 Family 2 Subfamily D Member 6 (CYP2D6) small molecule antagonists: luciferase reporter qHTS assay (AID 1671196); further: nearly all actives have a fitted effect of over 50% in size
# Run Conditions: P450-Glo CYP2D6 enzyme assay, luciferin luminescence, 1 h; series mostly up to 115 µM
Results filed as inconclusive are left out. Active and inactive are the calls of the source. The call rests on the fitted dose curve; in most records, active means well fitted inhibition curve with a large enough effect in the repeat runs; inconclusive means weak or mixed curves; inactive means no such curve, though single readings can be large or run the other way.
Possible outcomes: label 1 = active, label 0 = inactive

Compound | Target Desc | Answer Label
CCCCCCCCCCCCSC#N | Cytochrome P450 2D6 (Homo sapiens) | label 0
CCCCC(CC)COCCC#N (stereo not given) | Cytochrome P450 2D6 (Homo sapiens) | label 0
Oc1ccc(Oc2ccccc2)cc1 | Cytochrome P450 2D6 (Homo sapiens) | label 1
c1ccc(CN(Cc2ccccc2)Cc2ccccc2)cc1 | Cytochrome P450 2D6 (Homo sapiens) | label 1
CCn1nc(Cc2ccccc2)cc1C1CCN(C[C@H]2C[C@H](N(C)[C@@H](C(=O)O)C(C)C)C[C@@H]2c2cccc(F)c2)CC1 | Cytochrome P450 2D6 (Homo sapiens) | label 1
